All figures here come from PubChem BioAssay (NCATS).

- System: CP305
- procedure_text: qHTS profiling for inhibitors of Plasmodium falciparum proliferation (AID 504749); note: nearly all actives have a fitted effect of over 60% in size
- test_context: P. falciparum in erythrocytes, SYBR Green DNA, 72 h; series mostly up to 28.7 µM
Records with an inconclusive call do not appear. Calls of active or inactive are those of the source. Calls come from the whole dose curve; as a rule, active = well fitted inhibition curve with a large enough effect; inconclusive = small, poorly fitted or top-dose-only effect; inactive = flat fitted curve, though single readings scatter.
recorded_endpoint: outcome

NS(=O)(=O)c1cc(-c2nn[nH]n2)c(NCc2cccs2)cc1Cl : inactive
Nc1ccc(C(=O)Oc2ccccc2)c(O)c1 : inactive
CC(CSC(=O)c1ccccc1)C(=O)N1C[C@@H](Sc2ccccc2)C[C@H]1C(=O)O (stereo partly specified) : inactive
CC(C)CCCC(C)CCCC(C)CCCCC(C)CCCC(C)CCCC(C)C (stereo unspecified) : inactive
CCOc1ccc(C(=O)OCCN(CC)CC)cc1 : inactive
C=CCNC(N)=S : inactive
